measuredTarget: CD38 (rhCD38) (Homo sapiens, UniProt P28907)
Construct: ectodomain of recombinant human CD38 (His-tagged)
Sequence (P28907 45-300): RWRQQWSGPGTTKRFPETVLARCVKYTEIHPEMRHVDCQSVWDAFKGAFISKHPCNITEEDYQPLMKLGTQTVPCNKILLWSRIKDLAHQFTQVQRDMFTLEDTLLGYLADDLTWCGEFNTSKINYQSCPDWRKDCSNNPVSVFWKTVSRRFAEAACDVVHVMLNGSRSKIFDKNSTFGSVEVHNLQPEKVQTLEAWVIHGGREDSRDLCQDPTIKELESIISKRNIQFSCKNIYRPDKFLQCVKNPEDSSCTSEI
experimentalProtocol: tryptophan fluorescence quenching titration
Assay type: binding
experimentalSetup: read-out: Kd
valueType: Kd (µM)
Give bare numbers, in µM.

Using the record for Nc1nc2c(ncn2[C@@H]2O[C@@H]3COP(=O)(S)O[C@H]4[C@@H](O)[C@H](n5cnc6c(N)ncnc65)O[C@@H]4COP(=O)(S)O[C@@H]2[C@@H]3O)c(=O)[nH]1 (stereo partly shown) , report its Kd.
46.3
